B1: TEKT4 (parent)
chain: SEVEELNMSLTALREKLLEAEQSL

Variants of: B1
Assay: protein stability index of a GFP-peptide fusion (GPS, HEK-293T) (PSI 1-6); higher = more stable;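 note: lentivirally expressed fusions sorted by FACS into six bins by GFP to DsRed ratio, PSI derived from sequencing read proportions per bin multiplied by bin number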
Settings: c terminus: a fixed tail appended
Assign protein stability index to each entry below.
Answers are plain numbers.

Below, 2 variants whose answers are already recorded.
[
  {
    "RESIDUE_STRING": "SEVEELNMSLTALREKLNEAEQSL [L18N]",
    "VALUE_REPORTED": 4.11
  },
  {
    "RESIDUE_STRING": "SEVEELNMSLTALREKLLEQEQSL [A20Q]",
    "VALUE_REPORTED": 4.32
  }
]

Please state protein stability index for every variant in the list that follows.
1. SEVEELNMSLTALREKLLEAEQSW [L24W]
2. SEVEELNMSLTALREKLLEEEQSL [A20E]
3. SEVEELLMSLTALREKLLEAEQSL [N7L]

[out]
[3.74, 5.04, 2.31]
